- System: PCSK9 mRNA
- procedure-details: In vitro screening of modified dsRNAs targeted to PCSK9 (Table 2b; cell type not given)
- Type: cell-based
- particulars: 30 nM siRNA
In the oligonucleotide strings, read from the 5' end, every base follows the letter of its sugar. An asterisk marks phosphorothioate; unmarked linkages are phosphodiester. Other units and linkages are bracketed, terminal groups are in braces. A string of capitals states the bases alone. [Ab] = 3'-terminal abasic nucleotide; e = 2'-O-(2-methoxyethyl) (MOE); d = 2'-deoxy (DNA); m = 2'-O-methyl; r = 2'-OH (RNA); {P} = phosphate; f = 2'-fluoro
With a cut-off of 20%, any Remaining mRNA in % of controls at siRNA conc. of 30 nM strictly below it is called 1.0; any Remaining mRNA in % of controls at siRNA conc. of 30 nM meeting it or above is called 0.0.

substance: AD-12384: modified dsRNA, SEQ ID NO:1463/1464 (chain 1 rGmCmCmUrGrGrArGmUmUmUrAmUmUmCrGrGrArAdT*dT; chain 2 {P}-fUfUfCfCrGrArAfUrArArAfCfUfCfCrArGrGfCdT*dT)
class-assignment: 1.0
--
substance: AD-9314: unmodified parental PCSK9 siRNA, SEQ ID NO:1503/1504 (chain 1 rGrCrCrUrGrGrArGrUrUrUrArUrUrCrGrGrArAdT*dT; chain 2 rUrUrCrCrGrArArUrArArArCrUrCrCrArGrGrCdT*dT)
class-assignment: 1.0
--
substance: AD-12062: modified dsRNA, SEQ ID NO:1359/1360 (chain 1 rGmCrCmUrGmGrAmGrUmUrUmArUmUrCmGrGmArAdTdT[Ab]; chain 2 rUrUrCrCrGmAmArUrAmAmArCrUrCrCrAmGmGmCdTdT[Ab])
class-assignment: 1.0
--
substance: AD-12068: modified dsRNA, SEQ ID NO:1371/1372 (chain 1 rGmCrCmUrGmGrAmGrUmUrUmArUmUrCmGrGmArAdTdT[Ab]; chain 2 rUrUrCrCrGrArArUrArArArCrUrCrCrArGrGrCdTdT[Ab])
class-assignment: 1.0
--
substance: AD-12394: modified dsRNA, SEQ ID NO:1483/1484 (chain 1 rGfCfCfUrGrGrArGrGfUfUfUrAfUfUfCrGrGrArA; chain 2 mUrUmCrCrGrArAmUrArArArCrUmCmCrArGrGrCdT*dT)
class-assignment: 0.0
--
substance: AD-12043: modified dsRNA, SEQ ID NO:1321/1322 (chain 1 rGrCrCrUrGrGrArGrUrUrUrArUrUrCrGrGrArAdT*dT; chain 2 rUmUrCrCrGrArArUrArArArCrUrCrCrArGrGrCdT*dT)
class-assignment: 1.0
--
substance: AD-12382: modified dsRNA, SEQ ID NO:1459/1460 (chain 1 rGfCfCfUrGrGrArGfUfUfUrAfUfUfCrGrGrArAdT*dT; chain 2 {P}-fUfUfCfCrGrArAfUrArArAfCfUfCfCrArGrGfCdT*dT)
class-assignment: 1.0
--
substance: AD-12352: modified dsRNA, SEQ ID NO:1403/1404 (chain 1 fGmCfCmUfGmGfAmGfUmUfUmAfUmUfCmGfGmAfA; chain 2 rUrUrCrCrGmAmArUrAmAmArCrUrCrCrAmGmGmC*mC*mU)
class-assignment: 1.0
--
substance: AD-12371: modified dsRNA, SEQ ID NO:1439/1440 (chain 1 GCCUGGAGUUUAUUCGGAATT; chain 2 {P}-fUfUfCfCrGrArAfUrArArAfCfUfCfCrArGrGfC*fC*fU; chain 1: DNA at T, 2'-MOE at CU, RNA at AG, linkages o19 s1 (s phosphorothioate, o phosphodiester), methylation of C and T or U not given here)
class-assignment: 0.0
--
substance: AD-12385: modified dsRNA, SEQ ID NO:1465/1466 (chain 1 GCCUGGNAGUUUAUUCGGAATT; chain 2 {P}-fUfUfCfCrGrArAfUrArArAfCfUfCfCrArGrGfCdT*dT; chain 1: chemistry not given here; further chemistry not fully specified)
class-assignment: 1.0
--
substance: AD-12039: modified dsRNA, SEQ ID NO:1313/1314 (chain 1 rGmCmCmUrGrGrArGmUmUmUrAmUmUmCrGrGrArAdT*dT; chain 2 rUmUrCrCrGrArArUrArArArCrUrCrCrArGrGrCdT*dT)
class-assignment: 0.0
--
substance: AD-12389: modified dsRNA, SEQ ID NO:1473/1474 (chain 1 rGfCfCfUrGrGrArGrGfUfUfUrAfUfUfCrGrGrArA; chain 2 {P}-mUfUmCfCmGfAmAfUmAfAmAfCmUfCmCfAmGfGmC*fC*mU)
class-assignment: 1.0
--
substance: AD-12038: modified dsRNA, SEQ ID NO:1311/1312 (chain 1 rGmCmCmUrGrGrArGmUmUmUrAmUmUmCrGrGrArAdT*dT; chain 2 mUrUrCrCrGrArArUrArArArCrUrCrCrArGrGrCdT*dT)
class-assignment: 1.0
--
substance: AD-12400: modified dsRNA, SEQ ID NO:1495/1496 (chain 1 rGrCrCrUrGrGrArGrUrUrUrArUrUrCrGrGrArAdT*dT; chain 2 {P}-fUfUfCfCrGrArAfUrArArAfCfUfCfCrArGrGfC*fC*fU)
class-assignment: 1.0
--
substance: AD-12395: modified dsRNA, SEQ ID NO:1485/1486 (chain 1 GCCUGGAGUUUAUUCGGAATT; chain 2 {P}-fUfUfCfCrGrArAfUrArArAfCfUfCfCrArGrGfC*fC*fU; chain 1: sugars from the 5' end rerererererererererdd, linkages o19 s1 (s phosphorothioate, o phosphodiester), methylation of C not given here)
class-assignment: 0.0
--
substance: AD-10792: 2′OMe modified dsRNA targeting PCSK9 at 1091-1109, SEQ ID NO:1305/1306 (chain 1 rGmCmCmUrGrGrArGmUmUmUrAmUmUmCrGrGrArAdT*dT; chain 2 rUrUrCrCrGrArAmUrArArArCrUrCmCrArGrGrCdT*dT)
class-assignment: 1.0

Recorded values, source patent US20120016009A1.
